STUDY SYSTEM: T1, RBFOX1 RRM (Homo sapiens, UniProt Q9NWB1 109-208)
T1 sequence: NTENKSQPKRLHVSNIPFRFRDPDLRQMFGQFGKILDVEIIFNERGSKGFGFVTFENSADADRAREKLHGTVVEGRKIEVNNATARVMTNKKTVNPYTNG
ASSAY METHOD TEXT: EMSA; HiTS-Eq, 1 nM pool, 10 min; buffer printed only for the single-RNA assays: 10 mM Tris pH 7.5, 150 mM NaCl, 3.4 mM EDTA, 0.001% NP-40, 30 C
EXPERIMENTAL PARAMETERS: tags: His6 N-terminal (pET28a); label: 5' 32P
Whole data set: some 16,000 sequences, median “ka relative to ugcaugu” near 0.0091, cut for the highest 2% near 0.032. The sample holds the highest values, similar sequences and a random draw of the others, so the mix is not that of the screen.
METRIC NAME: binding signal

Please report binding signal for every entry that follows.
1. GUCAUGU (DNA:RNA) RNA: GGGAGACCGGAAUUCAGAUUGUCCGUCAUGUUUAAAUCCCGUCGUAGCCACCA DNA 1: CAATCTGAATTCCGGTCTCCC DNA 2: TGGTGGCTACGACGGGATT
2. GCUUAAA (DNA:RNA) RNA: GGGAGACCGGAAUUCAGAUUGUCCGCUUAAAUUAAAUCCCGUCGUAGCCACCA DNA 1: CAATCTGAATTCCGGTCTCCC DNA 2: TGGTGGCTACGACGGGATT
3. AGGCAUG (DNA:RNA) RNA: GGGAGACCGGAAUUCAGAUUGUCCAGGCAUGUUAAAUCCCGUCGUAGCCACCA DNA 1: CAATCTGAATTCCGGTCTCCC DNA 2: TGGTGGCTACGACGGGATT
4. GCUUGCU (DNA:RNA) RNA: GGGAGACCGGAAUUCAGAUUGUCCGCUUGCUUUAAAUCCCGUCGUAGCCACCA DNA 1: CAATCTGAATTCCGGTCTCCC DNA 2: TGGTGGCTACGACGGGATT
5. GCUUUGC (DNA:RNA) RNA: GGGAGACCGGAAUUCAGAUUGUCCGCUUUGCUUAAAUCCCGUCGUAGCCACCA DNA 1: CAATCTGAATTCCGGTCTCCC DNA 2: TGGTGGCTACGACGGGATT
6. ACCGGCA (DNA:RNA) RNA: GGGAGACCGGAAUUCAGAUUGUCCACCGGCAUUAAAUCCCGUCGUAGCCACCA DNA 1: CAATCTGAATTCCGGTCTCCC DNA 2: TGGTGGCTACGACGGGATT
7. CGGCAUG (DNA:RNA) RNA: GGGAGACCGGAAUUCAGAUUGUCCCGGCAUGUUAAAUCCCGUCGUAGCCACCA DNA 1: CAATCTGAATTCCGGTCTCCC DNA 2: TGGTGGCTACGACGGGATT
8. CGCUUGC (DNA:RNA) RNA: GGGAGACCGGAAUUCAGAUUGUCCCGCUUGCUUAAAUCCCGUCGUAGCCACCA DNA 1: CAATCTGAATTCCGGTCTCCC DNA 2: TGGTGGCTACGACGGGATT

1. 0.0129 KA relative to UGCAUGU
2. 0.00504 KA relative to UGCAUGU
3. 0.662 KA relative to UGCAUGU
4. 0.0354 KA relative to UGCAUGU
5. 0.0232 KA relative to UGCAUGU
6. 0.00809 KA relative to UGCAUGU
7. 0.573 KA relative to UGCAUGU
8. 0.032 KA relative to UGCAUGU

Supply recorded binding signal for AGGCAUC (DNA:RNA) RNA: GGGAGACCGGAAUUCAGAUUGUCCAGGCAUCUUAAAUCCCGUCGUAGCCACCA DNA 1: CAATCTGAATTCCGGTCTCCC DNA 2: TGGTGGCTACGACGGGATT here.
0.0123 KA relative to UGCAUGU

Where do these numbers come from? They come from paper PMC9911399.
